# measurement-description: physchem
# Excerpt: Solubility test methods: A compound with low solubility was selected and weighed into multiple centrifuge tubes. Each experimental tube received a known amount of the solubilizing agent being tested. The control tubes remained only with the compound. […] The supernatant solution was passed through a 0.2 μm or 0.45 μm filter and analyzed for the concentration of the low-solubility compound, and sometimes the solubilizing compound, by HPLC or UV-Vis spectrophotometer. […]
readout: Concentration in water without rubusoside (control sample)

CCC(C)n1ncn(-c2ccc(N3CCN(c4ccc(OCC5COC(Cn6cncn6)(c6ccc(Cl)cc6Cl)O5)cc4)CC3)cc2)c1=O (stereo not shown) [Itraconazole, reference compound]; not detected
COc1cc(CNC(=O)CCCC/C=C/C(C)C)ccc1O [Capsaicin, reference compound]; 57 µg/mL
Cc1ccc(-c2cc(C(F)(F)F)nn2-c2ccc(S(N)(=O)=O)cc2)cc1 [Celecoxib, reference compound]; not detected

---

# measurement-description: physchem
# condition-parameters: 25 °C, aqueous with cosolvent or surfactant or cyclodextrin, thermodynamic from solid
readout: solubility (µg/mL)
Enter your answer as a number in µg/mL; do not include the unit.

Task item: Respond only with solubility recorded for COc1cc([C@@H]2c3cc4c(cc3[C@H](O)[C@H]3COC(=O)[C@H]23)OCO4)cc(OC)c1OC [Podophyllotoxin, reference compound]
Reply: 919

---

Reported Solubility increase factor is given for each of the following compounds.
# measurement-description: physchem
# Excerpt: Solubility test methods: A compound with low solubility was selected and weighed into multiple centrifuge tubes. Each experimental tube received a known amount of the solubilizing agent being tested. The control tubes remained only with the compound. […] The supernatant solution was passed through a 0.2 μm or 0.45 μm filter and analyzed for the concentration of the low-solubility compound, and sometimes the solubilizing compound, by HPLC or UV-Vis spectrophotometer. […]
Respond using a number only.

Example cases with answers are listed next.
CC[C@H]1OC(=O)[C@H](C)[C@@H](O[C@H]2C[C@@](C)(OC)[C@@H](O)[C@H](C)O2)[C@H](C)[C@@H](O[C@@H]2O[C@H](C)C[C@H](N(C)C)[C@H]2O)[C@](C)(O)C[C@@H](C)C(=O)[C@H](C)[C@@H](O)[C@]1(C)O [Erythromycin, reference compound]; 11
O=C(O)c1cc(O)c(O)c(O)c1 [Gallic acid]; 9.6
COc1cc(CNC(=O)CCCC/C=C/C(C)C)ccc1O [Capsaicin, reference compound]; 86
CC(C)c1cccc(C(C)C)c1O [Propofol, reference compound]; 74

Proceed to the following item.
Task item: Give Solubility increase factor for the following compound: CO[C@H]1C[C@@H]2CC[C@@H](C)[C@@](O)(O2)C(=O)C(=O)N2CCCC[C@H]2C(=O)O[C@H]([C@H](C)C[C@@H]2CC[C@@H](O)[C@H](OC)C2)CC(=O)[C@H](C)/C=C(\C)[C@@H](O)[C@@H](OC)C(=O)[C@H](C)C[C@H](C)/C=C/C=C/C=C/1C [Rapamycin (Sirolimus), Rapamycin, reference compound]
Reply: 92

---

# measurement-description: physchem
# condition-parameters: 25 °C, aqueous with cosolvent or surfactant or cyclodextrin, thermodynamic from solid, Solubility in water with solubilizer
readout: solubility (µg/mL)
Use µg/mL as the unit, but write only the number.

Some compounds with known solubility results, for comparison:
C[C@@H]1O[C@@H](OC[C@H]2O[C@@H](Oc3c(-c4ccc(O)c(O)c4)oc4cc(O)cc(O)c4c3=O)[C@H](O)[C@@H](O)[C@@H]2O)[C@H](O)[C@H](O)[C@H]1O; 1750
CC[C@H]1OC(=O)[C@H](C)[C@@H](O[C@H]2C[C@@](C)(OC)[C@@H](O)[C@H](C)O2)[C@H](C)[C@@H](O[C@@H]2O[C@H](C)C[C@H](N(C)C)[C@H]2O)[C@](C)(O)C[C@@H](C)C(=O)[C@H](C)[C@@H](O)[C@]1(C)O [Erythromycin, reference compound]; 5330
COC1=C(OC)C(=O)C(C/C=C(\C)CC/C=C(\C)CC/C=C(\C)CC/C=C(\C)CC/C=C(\C)CC/C=C(\C)CC/C=C(\C)CC/C=C(\C)CC/C=C(\C)CCC=C(C)C)=C(C)C1=O; 111
CC(C)c1cccc(C(C)C)c1O [Propofol, reference compound]; 11700
Cc1ccc(-c2cc(C(F)(F)F)nn2-c2ccc(S(N)(=O)=O)cc2)cc1 [Celecoxib, reference compound]; 488
C[C@@H]1CC[C@H]2[C@@H](C)C(=O)O[C@@H]3O[C@@]4(C)CC[C@@H]1[C@]32OO4 [Artemisinin, reference compound]; 280
COc1cc(C2Oc3cc([C@H]4Oc5cc(O)cc(O)c5C(=O)[C@@H]4O)ccc3OC2CO)ccc1O (stereo partly drawn) [Silybin (Silibinin), Silybin]; 150
O=C(O)c1cc(O)c(O)c(O)c1; 106000

For the next question, use this compound.
Task item: Provide measured solubility value, entry: CO[C@H]1C[C@@H]2CC[C@@H](C)[C@@](O)(O2)C(=O)C(=O)N2CCCC[C@H]2C(=O)O[C@H]([C@H](C)C[C@@H]2CC[C@@H](O)[C@H](OC)C2)CC(=O)[C@H](C)/C=C(\C)[C@@H](O)[C@@H](OC)C(=O)[C@H](C)C[C@H](C)/C=C/C=C/C=C/1C [Rapamycin (Sirolimus), Rapamycin, reference compound]
Reply: 240

---

# measurement-description: physchem
# condition-parameters: 25 °C, water, thermodynamic from solid, Solubility
# Text: Solubility test methods: A compound with low solubility was selected and weighed into multiple centrifuge tubes. Each experimental tube received a known amount of the solubilizing agent being tested. The control tubes remained only with the compound. […] The supernatant solution was passed through a 0.2 μm or 0.45 μm filter and analyzed for the concentration of the low-solubility compound, and sometimes the solubilizing compound, by HPLC or UV-Vis spectrophotometer. […]
readout: solubility (µg/mL)
Give your result in µg/mL as a bare value.

Task item: Please look at this molecule and report its solubility: COc1cc(CNC(=O)CCCC/C=C/C(C)C)ccc1O [Capsaicin, reference compound]
Reply: 57

---

# measurement-description: physchem
# condition-parameters: 25 °C, water, thermodynamic from solid, Solubility of CPT, Table 4; rubusoside amount as in the label
readout: solubility (µg/mL)
Expressed in µg/mL, but write only the number.

Task item: Using known records, supply solubility for `CC[C@@]1(O)C(=O)OCc2c1cc1n(c2=O)Cc2cc3ccccc3nc2-1`
Reply: 0.4

---

# measurement-description: physchem
readout: Solubility in water with solubilizer (µg/mL)
The reply should contain only the number, in µg/mL.

CCC(C)n1ncn(-c2ccc(N3CCN(c4ccc(OCC5COC(Cn6cncn6)(c6ccc(Cl)cc6Cl)O5)cc4)CC3)cc2)c1=O (stereo not shown) [Itraconazole, reference compound]; 21
CC(=O)O[C@H]1C(=O)[C@@]2(C)[C@H]([C@H](OC(=O)c3ccccc3)[C@]3(O)C[C@H](OC(=O)[C@H](O)[C@@H](NC(=O)c4ccccc4)c4ccccc4)C(C)=C1C3(C)C)[C@]1(OC(C)=O)CO[C@@H]1C[C@@H]2O [Paclitaxel, reference compound]; 10

Task item: Output measured Solubility in water with solubilizer for this item: COC1=C(OC)C(=O)C(C/C=C(\C)CC/C=C(\C)CC/C=C(\C)CC/C=C(\C)CC/C=C(\C)CC/C=C(\C)CC/C=C(\C)CC/C=C(\C)CC/C=C(\C)CCC=C(C)C)=C(C)C1=O [Coenzyme Q10]
Reply: 111

---

# measurement-description: physchem
readout: Solubility increase factor

C[C@@H]1CC[C@H]2[C@@H](C)C(=O)O[C@@H]3O[C@@]4(C)CC[C@@H]1[C@]32OO4 [Artemisinin, reference compound]; 5
COc1cc(C2Oc3cc([C@H]4Oc5cc(O)cc(O)c5C(=O)[C@@H]4O)ccc3OC2CO)ccc1O (stereo partly drawn) [Silybin (Silibinin), Silybin]; Many
COC1=C(OC)C(=O)C(C/C=C(\C)CC/C=C(\C)CC/C=C(\C)CC/C=C(\C)CC/C=C(\C)CC/C=C(\C)CC/C=C(\C)CC/C=C(\C)CC/C=C(\C)CCC=C(C)C)=C(C)C1=O; 1110

---

# measurement-description: physchem
# condition-parameters: 37 °C, water, Solubility in water
readout: solubility

Task item: Give solubility for C=C1C[C@@]23CC[C@H]4[C@@](C)(CCC[C@@]4(C)C(=O)O[C@@H]4O[C@H](CO)[C@@H](O)[C@H](O)[C@H]4O)[C@@H]2CC[C@]1(O[C@@H]1O[C@H](CO)[C@@H](O)[C@H](O)[C@H]1O)C3 [rubusoside]
Reply: ~800 mg/mL

---

# measurement-description: physchem
readout: Solubility increase factor

CCC(C)n1ncn(-c2ccc(N3CCN(c4ccc(OCC5COC(Cn6cncn6)(c6ccc(Cl)cc6Cl)O5)cc4)CC3)cc2)c1=O (stereo not shown) [Itraconazole, reference compound]; Many
Cc1ccc(-c2cc(C(F)(F)F)nn2-c2ccc(S(N)(=O)=O)cc2)cc1 [Celecoxib, reference compound]; Many
Cc1c(C)c2c(c(C)c1O)CC[C@@](C)(CCC[C@H](C)CCC[C@H](C)CCCC(C)C)O2 [Alpha-Tocopherol (VE), Alpha-tocopherol]; Many
